Entries and their measured AC50 follow.
# Test system: Prostaglandin G/H synthase 1 (Rattus norvegicus, UniProt Q63921); note: assay procedure not described here
# Sequence (Q63921 whole entry): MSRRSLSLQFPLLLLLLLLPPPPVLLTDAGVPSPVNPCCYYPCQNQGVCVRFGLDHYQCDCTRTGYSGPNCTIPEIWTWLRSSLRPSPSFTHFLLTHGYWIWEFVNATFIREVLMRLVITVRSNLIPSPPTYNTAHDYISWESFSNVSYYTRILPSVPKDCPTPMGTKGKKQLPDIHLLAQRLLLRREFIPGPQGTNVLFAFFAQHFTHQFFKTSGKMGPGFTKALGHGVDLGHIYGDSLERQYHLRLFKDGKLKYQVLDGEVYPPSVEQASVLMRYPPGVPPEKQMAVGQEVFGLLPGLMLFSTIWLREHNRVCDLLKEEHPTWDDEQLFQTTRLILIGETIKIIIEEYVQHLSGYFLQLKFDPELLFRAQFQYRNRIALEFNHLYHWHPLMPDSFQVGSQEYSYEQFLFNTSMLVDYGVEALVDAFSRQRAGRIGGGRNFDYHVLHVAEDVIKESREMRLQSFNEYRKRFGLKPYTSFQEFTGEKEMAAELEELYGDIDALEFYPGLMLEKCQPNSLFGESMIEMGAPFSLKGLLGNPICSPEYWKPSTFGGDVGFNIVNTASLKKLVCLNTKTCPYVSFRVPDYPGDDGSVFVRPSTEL
# Type: functional

| Compound | Measure unit | Inequality symbol | AC50 |
| --- | --- | --- | --- |
| CCOc1cc([C@@H](CS(C)(=O)=O)N2C(=O)c3cccc(NC(C)=O)c3C2=O)ccc1OC | µM | > | 30 |
| CN1Cc2c(N)cccc2C(c2ccccc2)C1 (stereo not given) [NOMIFENSINE] | µM | = | 7.5 |
| CNC[C@H](O)c1ccc(O)c(O)c1 [EPINEPHRINE] | µM | > | 30 |
| COc1ccc([C@@H]2CC(=O)c3c(O)cc(O)cc3O2)cc1O [HESPERETIN] | µM | = | 30.7 |
| CC1=C(C(=O)OC(C)C)C(c2cccc([N+](=O)[O-])c2)C(C(=O)OC2CN(C(c3ccccc3)c3ccccc3)C2)=C(N)N1 (stereo not given) [AZELNIDIPINE] | µM | = | 16 |

---

# Test system: Cholecystokinin receptor type A (Homo sapiens, UniProt P32238); note: assay procedure not described here
# Sequence (P32238 whole entry): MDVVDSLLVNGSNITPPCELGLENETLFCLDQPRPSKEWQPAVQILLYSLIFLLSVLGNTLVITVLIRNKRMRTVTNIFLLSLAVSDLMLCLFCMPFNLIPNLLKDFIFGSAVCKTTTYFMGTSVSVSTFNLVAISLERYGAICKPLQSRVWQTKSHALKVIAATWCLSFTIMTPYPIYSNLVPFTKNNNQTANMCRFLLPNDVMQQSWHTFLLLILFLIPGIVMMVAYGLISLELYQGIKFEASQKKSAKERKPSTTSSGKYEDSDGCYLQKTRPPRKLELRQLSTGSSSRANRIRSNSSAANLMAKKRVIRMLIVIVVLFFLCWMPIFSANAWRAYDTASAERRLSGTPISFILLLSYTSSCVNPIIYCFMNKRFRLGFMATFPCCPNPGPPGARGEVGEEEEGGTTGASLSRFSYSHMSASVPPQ
Consider the following compounds and their measured AC50 readings.
Property measured: AC50

| Compound | Reported value |
| --- | --- |
| CCCN1CC(NS(=O)(=O)N(CC)CC)CC2Cc3c(O)cccc3CC21 (centres undefined) [QUINAGOLIDE] | > 30 µM |
| Cc1ccnc2c1NC(=O)c1cccnc1N2C1CC1 | > 30 µM |
| CCOC(=O)[C@@H](N)Cc1ccc(-c2cc(O[C@H](c3ccc(Cl)cc3-n3ccc(C)n3)C(F)(F)F)nc(N)n2)cc1 | 10 µM |
| CN(CCOc1ccc(CC2SC(=O)NC2=O)cc1)c1ccccn1 (centres undefined) | > 30 µM |

---

# Test system: Histamine H1 receptor (Homo sapiens, UniProt P35367); note: assay procedure not described here
# Sequence (P35367 whole entry): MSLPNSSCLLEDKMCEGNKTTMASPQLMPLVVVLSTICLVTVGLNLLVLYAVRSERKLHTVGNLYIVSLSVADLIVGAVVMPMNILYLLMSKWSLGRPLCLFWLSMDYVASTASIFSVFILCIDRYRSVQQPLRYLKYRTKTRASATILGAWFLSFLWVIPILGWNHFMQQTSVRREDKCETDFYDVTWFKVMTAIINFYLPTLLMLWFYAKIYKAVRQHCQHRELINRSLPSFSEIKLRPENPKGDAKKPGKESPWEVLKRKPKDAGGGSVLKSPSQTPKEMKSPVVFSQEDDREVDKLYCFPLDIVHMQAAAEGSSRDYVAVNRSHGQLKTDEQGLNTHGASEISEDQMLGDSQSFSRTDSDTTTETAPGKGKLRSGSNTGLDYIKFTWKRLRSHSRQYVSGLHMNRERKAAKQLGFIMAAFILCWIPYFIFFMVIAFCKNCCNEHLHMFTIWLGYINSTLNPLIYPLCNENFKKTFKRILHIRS

| Molecule | Inequality symbol | AC50 [µM] |
| --- | --- | --- |
| Oc1ccc(CCNCCCCCCNCCc2ccccc2)cc1O [DOPEXAMINE] | = | 15 |
| CC(C)N(CCCCOCC(=O)O)c1cnc(-c2ccccc2)c(-c2ccccc2)n1 | > | 30 |
| Clc1ccc(Cn2c(CN3CCCC3)nc3ccccc32)cc1 [CLEMIZOLE] | = | 0.0034 |
| Cc1ccccc1-n1c(CF)nc2ccc(N)cc2c1=O [AFLOQUALONE] | > | 10 |
| COc1ccc(CN2CCN(C(c3ccc(F)cc3)c3ccc(F)cc3)CC2)c(OC)c1OC [LOMERIZINE] | = | 4.5 |
| CCOC(=O)c1c(CSc2ccccc2)n(C)c2cc(Br)c(O)c(CN(C)C)c12 [UMIFENOVIR] | = | 30 |
| COc1cc(C(=O)OCc2cccc(COC(=O)c3cc(OC)c(OC)c(OC)c3)n2)cc(OC)c1OC [PIROZADIL] | > | 30 |
| CN(C)Cc1nnc2n1-c1ccc(Cl)cc1C(c1ccccc1)=NC2 [ADINAZOLAM] | > | 10 |
| CC/C=C\C/C=C\C/C=C\C/C=C\C/C=C\CCCC(=O)OCC [ICOSAPENT ETHYL] | > | 30 |
